# logP annotations
Would you mind answering with just the numeric figure?

INSERT INTO measurements (input_smiles, assay_readout, measured) VALUES
  ('Cc1ccc2c(C)cccc2c1', 'logP', 4.27),
  ('Cc1cc(C)c2ccccc2c1C', 'logP', 4.49);

Query `Cc1cc(C)c2cc(C)ccc2c1` yields logP of 4.38

====

# logP annotations
Would you mind answering with just the numeric figure?

INSERT INTO assay_data (input_smiles, assay_readout, measured) VALUES
  ('Cc1cc2c(C)ccc(C)c2cc1C', 'logP', 4.74);

Query `Cc1ccc(C)c2c(C)cccc12` yields logP of 4.48

Query `Cc1ccc2cccc(C)c2c1` yields logP of 4.19

Query `Cc1ccc2ccc(C)cc2c1` yields logP of 4.37
